Entry source: BigSolDB 2.1

Hi there, I'd appreciate the recorded solubility (mole fraction) for every entry that follows.
Conditions: in water, 308.15 K

Query: I have this molecule here, CCn1cc(C(=O)O)c(=O)c2cnc(N3CCNCC3)nc21 , and I need its recorded solubility (mole fraction).
Result: 2.63e-05

Query: State the recorded solubility (mole fraction) for this entry: CCn1cc(C(=O)O)c(=O)c2cc(F)c(N3CCNC(C)C3)c(F)c21 (stereo not drawn)
Result: 4.9e-05

Query: Fill blank: measured solubility (mole fraction) of the molecule CCn1cc(C(=O)O)c(=O)c2cc(F)c(N3CCNCC3)cc21 is ____.
Result: 2.92e-05

---

Conditions: in water, 303.15 K
Would you kindly list solubility (mole fraction) for each of these compounds?

Query: Find the recorded solubility (mole fraction) belonging to CCn1cc(C(=O)O)c(=O)c2cc(F)c(N3CCNC(C)C3)c(F)c21 (stereo not drawn) and report it.
Result: 4.33e-05

Query: Name the reported solubility (mole fraction) value associated with the compound CCn1cc(C(=O)O)c(=O)c2cnc(N3CCNCC3)nc21
Result: 2.3e-05

Query: # lookup: solubility (mole fraction) of CCn1cc(C(=O)O)c(=O)c2cc(F)c(N3CCNCC3)cc21
Result: 2.54e-05
